- System: Dichromothrips corbetti
- ASSAY_REMARKS: Orchid thrips (Dichromothrips corbetti), floral-immersion technique
- Type: in vivo
- MEASUREMENT_CONTEXT: Dichromothrips corbetti, 72 h, read-out: mortality in comparison with untreated controls
The entries below are paired with their reported mortality at 300 ppm.

[
  {
    "COMPOUND": "Fc1c(Cl)cc(C2(C(F)(F)F)CC(Nc3ccc(Cl)c(-n4cc(C(F)(F)F)cn4)c3)=NO2)cc1Cl (centres unmarked)",
    "mortality at 300 ppm": "≥ 75%"
  },
  {
    "COMPOUND": "Fc1c(Cl)cc(C2(C(F)(F)F)CC(Nc3ccc(Cl)c(-n4cnc(C(F)(F)F)c4)c3)=NO2)cc1Cl (centres unmarked)",
    "mortality at 300 ppm": "≥ 75%"
  },
  {
    "COMPOUND": "N#Cc1ccc(NC2=NOC(c3cc(Cl)c(F)c(Cl)c3)(C(F)(F)F)C2)cc1-n1cncn1 (centres unmarked)",
    "mortality at 300 ppm": "≥ 75%"
  },
  {
    "COMPOUND": "CCOC(=O)N(C1=NOC(c2cc(Cl)c(F)c(Cl)c2)(C(F)(F)F)C1)c1ccc(Cl)c(-n2cnc(C(F)(F)F)c2)c1 (centres unmarked)",
    "mortality at 300 ppm": "≥ 75%"
  },
  {
    "COMPOUND": "CCN(C1=NOC(c2cc(Cl)c(F)c(Cl)c2)(C(F)(F)F)C1)c1ccc(C#N)c(-n2cncn2)c1 (centres unmarked)",
    "mortality at 300 ppm": "≥ 75%"
  }
]
